Assay: Toxicity liver stage against HepG2, at 10uM
Type: cell-based
Set-up: test concentration 10 uM, cell line HepG2-A16-CD81EGFP
Conditions: human, HepG2-A16-CD81EGFP cells; read-out: INHIBITION
PROPERTY: cytotoxicity at 10 µM (%)

COMPOUND: CNC(=O)c1ccc(NC2CCN(CC(F)(F)F)C2=O)cc1Cl (centres undefined)
UNITS SYMBOL: %
OBSERVED RESULT: -1.13

COMPOUND: CC(NCCc1nccn1Cc1ccccc1)c1cccs1 (centres undefined)
UNITS SYMBOL: %
OBSERVED RESULT: 3.68

COMPOUND: CC(C)N(C)CC(=O)NCC(O)c1cc2ccccc2s1 (centres undefined)
UNITS SYMBOL: %
OBSERVED RESULT: -3.91

COMPOUND: CC(C)COC(C)C(=O)N1CCCCC1 (centres undefined)
UNITS SYMBOL: %
OBSERVED RESULT: -5.66

COMPOUND: O=C(CN1C(=O)CCC1=O)N1CCOCC1
UNITS SYMBOL: %
OBSERVED RESULT: 2.48

COMPOUND: Cc1ncsc1CCC(=O)NC1CCN(c2ccc(Cl)nn2)CC1
UNITS SYMBOL: %
OBSERVED RESULT: -2.5

COMPOUND: CCCC(O)CN1CCC(=O)N(CC)Cc2cc3c(cc21)OCO3 (centres undefined)
UNITS SYMBOL: %
OBSERVED RESULT: -18.5

COMPOUND: CN(C)C(=O)N1CCC2(CCC(C(=O)N3CCCC3)O2)CC1 (centres undefined)
UNITS SYMBOL: %
OBSERVED RESULT: -0.125

COMPOUND: Cc1cnn(CC2CCCN2Cc2coc(-c3cccc(F)c3)n2)c1 (centres undefined)
UNITS SYMBOL: %
OBSERVED RESULT: 1.2

COMPOUND: CN1CCC2(CC1)Cc1ccccc1CN(C(=O)CN)C2
UNITS SYMBOL: %
OBSERVED RESULT: -1.63

COMPOUND: Cc1cnc(CN(C)C2CCN(CCc3cnn(C)c3)C2)o1 (centres undefined)
UNITS SYMBOL: %
OBSERVED RESULT: 5.44

COMPOUND: CN1CCN(C[C@@H]2OC[C@H]3CN(CCc4ccccc4)CC[C@H]32)CC1
UNITS SYMBOL: %
OBSERVED RESULT: 8.84

COMPOUND: Cc1cccc(NC2CCN(C(=O)Nc3cc(C)on3)CC2)n1
UNITS SYMBOL: %
OBSERVED RESULT: -13.7

COMPOUND: Cc1ccc(N2CCC(Nc3ccc4nnc(C)n4n3)CC2)nc1
UNITS SYMBOL: %
OBSERVED RESULT: 8.56

COMPOUND: Cc1c(CNS(=O)(=O)c2cccc(COC(C)C)c2)cnn1C
UNITS SYMBOL: %
OBSERVED RESULT: 6.14

COMPOUND: O=C1C[C@@H]2[C@H](CCN2Cc2ccccn2)N1Cc1ccncc1
UNITS SYMBOL: %
OBSERVED RESULT: 4.53

COMPOUND: N[C@@H]1CCN(Cc2ccc(-c3nc(-c4cccnc4)cc(=O)[nH]3)cc2)C1
UNITS SYMBOL: %
OBSERVED RESULT: 9.48

COMPOUND: COc1ccccc1C1=NOC(CC2(C(=O)NCCO)CCOCC2)C1 (centres undefined)
UNITS SYMBOL: %
OBSERVED RESULT: -26.2

COMPOUND: c1cncc(-c2noc(CN3CCn4c(nnc4C4CC4)C3)n2)c1
UNITS SYMBOL: %
OBSERVED RESULT: -8.69

COMPOUND: CNC(=O)c1cc(-n2ccnc2-c2cnc(N(C)C)nc2)ccc1OC
UNITS SYMBOL: %
OBSERVED RESULT: -6.91

COMPOUND: CNC(=O)c1ccc(OC)c(NCc2ncc(-c3cccs3)o2)c1
UNITS SYMBOL: %
OBSERVED RESULT: 14

COMPOUND: Cc1cnc2n(c1=O)CC(C(=O)Nc1cccc3cccnc13)CS2 (centres undefined)
UNITS SYMBOL: %
OBSERVED RESULT: -19.6

COMPOUND: CN(Cc1cccnc1)[C@@H]1CN(c2ccccn2)[C@@H]2CCCO[C@H]12
UNITS SYMBOL: %
OBSERVED RESULT: 2.78

COMPOUND: Cc1noc(C2CCN(Cc3cc(=O)n(C)c(=O)n3C)CC2)n1
UNITS SYMBOL: %
OBSERVED RESULT: -2.57

Values compiled from ChEMBL document CHEMBL4513216.
